# Ki per entry
assayed.target: HCV NS3/NS4a serine protease (Hepatitis C virus genotype 1b, UniProt P26663)
Construct: amino terminus of the NS3 protease domain (amino acids 3-181) with a tetrapeptide linker; made in house; host or cells: E. coli
Sequence (P26663 1013-1207, looked up, natural form): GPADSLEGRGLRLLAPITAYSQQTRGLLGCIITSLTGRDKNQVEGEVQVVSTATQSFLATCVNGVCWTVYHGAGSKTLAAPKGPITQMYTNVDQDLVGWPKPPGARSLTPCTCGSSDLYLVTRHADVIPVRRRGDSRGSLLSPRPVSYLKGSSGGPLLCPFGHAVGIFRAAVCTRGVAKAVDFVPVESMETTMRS
protocol.text: Spectrophotometric assay for HCV protease inhibitory activity (chromogenic ester substrates)
Assay type: biochemical, hepatitis C virus (strain 1b)
details: Ki, Table 3; rating; single chain NS4A21-32-GSGS-NS3 3-181 protease, 30° C., pH 6.5
Experimental: Spectrophotometric Assay: Spectrophotometric assays for the HCV serine protease were performed on the inventive compounds by following the procedure described by R. Zhang et al., Analytical Biochemistry, 270 (1999) 268-275, the disclosure of which is incorporated herein by reference. […] Protein concentrations were determined by the Biorad dye method using recombinant HCV protease standards previously quantified by amino acid analysis. […]
endpoint.label: Ki

compound	endpoint.label	recorded.result
CN(C[C@@H](NC(=O)N[C@H](C(=O)N1C[C@H]2[C@@H]([C@H]1C(=O)N[C@@H](CC(F)F)C(=O)N1CCc3ccccc3C1)C2(C)C)C(C)(C)C)C(C)(C)C)S(C)(=O)=O [Example 302]	Ki	> 500 nM
CN(C[C@@H](NC(=O)N[C@H](C(=O)N1C[C@H]2[C@@H]([C@H]1C(=O)N[C@@H](CC(F)F)C(=O)NCCc1c(F)cccc1Cl)C2(C)C)C(C)(C)C)C(C)(C)C)S(C)(=O)=O [Example 275]	Ki	< 100 nM
CN(C[C@@H](NC(=O)N[C@H](C(=O)N1C[C@H]2[C@@H]([C@H]1C(=O)N[C@@H](CC(F)F)C(=O)NCCc1ccc(Oc3ccccc3)cc1)C2(C)C)C(C)(C)C)C(C)(C)C)S(C)(=O)=O [Example 291]	Ki	< 100 nM
CN(C[C@@H](NC(=O)N[C@H](C(=O)N1C[C@H]2[C@@H]([C@H]1C(=O)N[C@@H](CC(F)F)C(=O)NCC1CCCCC1)C2(C)C)C(C)(C)C)C(C)(C)C)S(C)(=O)=O [Example 213]	Ki	> 500 nM
CN(C[C@@H](NC(=O)N[C@H](C(=O)N1C[C@H]2[C@@H]([C@H]1C(=O)N[C@@H](CC(F)F)C(=O)NCCc1ccccc1Br)C2(C)C)C(C)(C)C)C(C)(C)C)S(C)(=O)=O [Example 289]	Ki	< 100 nM
CN(C[C@@H](NC(=O)N[C@H](C(=O)N1C[C@H]2[C@@H]([C@H]1C(=O)N[C@@H](CC(F)F)C(=O)NCc1cccs1)C2(C)C)C(C)(C)C)C(C)(C)C)S(C)(=O)=O [Example 212]	Ki	> 500 nM
CN(C[C@@H](NC(=O)N[C@H](C(=O)N1C[C@H]2[C@@H]([C@H]1C(=O)N[C@@H](CC(F)F)C(=O)NCCC(c1ccccc1)c1ccccc1)C2(C)C)C(C)(C)C)C(C)(C)C)S(C)(=O)=O [Example 229]	Ki	> 500 nM
CN(C[C@@H](NC(=O)N[C@H](C(=O)N1C[C@H]2[C@@H]([C@H]1C(=O)N[C@@H](CC(F)F)C(=O)NC1CC1)C2(C)C)C(C)(C)C)C(C)(C)C)S(C)(=O)=O [Example 203]	Ki	> 500 nM
CC(NC(=O)[C@H](CC(F)F)NC(=O)[C@@H]1[C@@H]2[C@H](CN1C(=O)[C@@H](NC(=O)N[C@H](CN(C)S(C)(=O)=O)C(C)(C)C)C(C)(C)C)C2(C)C)c1ccc(Cl)cc1 (stereo partly shown) [Example 226]	Ki	> 500 nM
COc1cccc(CCNC(=O)[C@H](CC(F)F)NC(=O)[C@@H]2[C@@H]3[C@H](CN2C(=O)[C@@H](NC(=O)N[C@H](CN(C)S(C)(=O)=O)C(C)(C)C)C(C)(C)C)C3(C)C)c1OC [Example 277]	Ki	100 to 500 nM

Data credit: patent US7449447B2
